B1: E3 ubiquitin-protein ligase Midline-1, residues 172 to 214; numbered along this chain, O15344 (parent)
chain: GLMCLEHEDEKVNMYCVTDDQLICALCKLVGRHRDHQVAALSE

Variants of: B1
Experiment: abundance fitness (aPCA) (normalised: wild type 0, dead -1); higher = more abundant; growth selection in yeast, the domain comes from the species named
Conditions: Homo sapiens

{"columns": ["variant description", "abundance fitness"],
 "data": [
  ["M14S", 0.267],
  ["D20Q", 0.099],
  ["C27W", -1.01],
  ["Q21P", -0.524],
  ["E6I", 0.126],
  ["E43T", -0.221],
  ["Q37E", 0.023],
  ["D19H", -0.496],
  ["D20V", -0.33],
  ["D35M", -0.299],
  ["K28S", 0.013],
  ["L5R", -0.062],
  ["T18R", -0.101],
  ["C4R", -0.647],
  ["Q21M", 0.052],
  ["C16S", -0.14],
  ["V38C", 0.076],
  ["E6K", -0.206],
  ["H33N", -0.42],
  ["R34Y", -0.544],
  ["V30H", 0.21],
  ["G1W", -0.611],
  ["M3F", 0.111],
  ["L2K", 0.795],
  ["C27M", -1.02],
  ["D20H", -0.106],
  ["L26H", 0.353],
  ["R32C", -0.021],
  ["L26Y", -0.041],
  ["A39S", 0.102],
  ["C24E", -1.05],
  ["R34E", 0.063],
  ["G1P", -0.112],
  ["C24W", -0.978],
  ["L41Q", 0.136],
  ["E10W", -0.247],
  ["L22W", 0.024]
]}
